Below: a set of entries, each annotated with reported Percent Effect.
System: Mycobacterium tuberculosis
Assay: Cornell - Phenotypic assay to identify agents that inhibit growth of Mycobacterium tuberculosis
Assay type: functional
Parameters: scale not given: direction of the effect not stated beside the values
Conditions: 10 mM as filed; unlikely as a test dose
Hit rate of the full screen: of about 53,000 compounds, about 900 (1.7%) showed an effect of 50% or more. Shown is part of a subset that was picked to be rich in strong results.
quantity measured: Percent Effect (%)

{"molecule": "Cn1cc(CN2CCC(c3ncc(Cl)cc3S(C)(=O)=O)CC2)cn1", "unit label": "%", "value observed": 39.28}
{"molecule": "O=C(NS(=O)(=O)c1cc(Cl)sc1Cl)c1cccc2c1OCCO2", "unit label": "%", "value observed": 1.673}
{"molecule": "COc1ccc(C(=O)NS(=O)(=O)c2cc(Cl)sc2Cl)cc1OC(F)F", "unit label": "%", "value observed": 76.92}
{"molecule": "COC(=O)CCc1c(C)nn(-c2nc(C)cc(=O)[nH]2)c1C", "unit label": "%", "value observed": 23.13}
{"molecule": "O=C(CN1CCC2(CC1)NC(=O)c1cc(Br)ccc1N2)NC1CC1", "unit label": "%", "value observed": -67.58}
{"molecule": "NC1(c2nc(-c3ccccc3)cc(=O)[nH]2)CCCC1", "unit label": "%", "value observed": 17.2}
{"molecule": "CCOc1ccc(NC(C)=O)cc1S(=O)(=O)Nc1nccs1", "unit label": "%", "value observed": 7.151}
{"molecule": "O=C(c1ccnnc1)N1CC[C@@H](O)[C@@H]1Cc1ccccc1", "unit label": "%", "value observed": -23.76}
{"molecule": "Cc1ccc(CSc2nc(N)cc(NCCC(N)=O)n2)cc1", "unit label": "%", "value observed": 44.65}
{"molecule": "NC1(c2nc(-c3cccs3)cc(=O)[nH]2)CCCC1", "unit label": "%", "value observed": -47.24}
{"molecule": "CCCS(=O)(=O)NCCn1ccc(-c2cccs2)n1", "unit label": "%", "value observed": -17.91}
{"molecule": "Cc1cc(=O)[nH]c(-n2nc(C)c(CCC(=O)NCc3cccs3)c2C)n1", "unit label": "%", "value observed": 13.95}
{"molecule": "COc1ccc(C(=O)NS(C)(=O)=O)cc1-c1ccccc1", "unit label": "%", "value observed": 36.61}
{"molecule": "CCCn1cc(C(=O)N2CCCC2(C)c2nc(C)cc(N)n2)cn1 (centres undefined)", "unit label": "%", "value observed": -4.951}
{"molecule": "Cc1cc(C)n(CC2CN(CC(=O)NC3CCCC3)CCO2)n1 (centres undefined)", "unit label": "%", "value observed": -7.412}
{"molecule": "CCS(=O)(=O)N1C[C@H]2CN(CC3CC3)C(=O)[C@H]2C1", "unit label": "%", "value observed": -29.96}
{"molecule": "CC(C)C(=O)N1CCC(c2c(C(N)=O)sc3ccccc23)C1 (centres undefined)", "unit label": "%", "value observed": -20.56}
{"molecule": "COc1cccc(CC2CN(C3CC(C)(C)NC(C)(C)C3)CCO2)c1 (centres undefined)", "unit label": "%", "value observed": -51.86}
{"molecule": "Cc1ccc(CSc2nc(N)cc(NCC(=O)N3CCNCC3)n2)cc1", "unit label": "%", "value observed": -47.88}
{"molecule": "CCCc1cc(=O)[nH]c(-n2nc(-c3cccs3)cc2N)n1", "unit label": "%", "value observed": 94.38}
{"molecule": "Cc1ccc(CSc2nc(N)cc(NCCS(=O)(=O)N(C)C)n2)cc1", "unit label": "%", "value observed": 52.28}
{"molecule": "CNC(=O)c1ccc(C2CN(C(=O)c3scnc3C)CCO2)nc1 (centres undefined)", "unit label": "%", "value observed": -17.28}
{"molecule": "CC(C)NC(=O)Cn1ccc2c(Cl)cccc21", "unit label": "%", "value observed": 18.88}
{"molecule": "CCCN1CCN(Cc2cc3cc(OCC)ccc3[nH]c2=O)CC1", "unit label": "%", "value observed": 16.06}

* * *

Test system: Mycobacterium tuberculosis
Experiment: Cornell - Phenotypic assay to identify agents that inhibit growth of Mycobacterium tuberculosis
Format: functional
Set-up: scale not given: direction of the effect not stated beside the values
Details: 10 mM as filed; unlikely as a test dose
Hit rate of the full screen: of about 53,000 compounds, about 900 (1.7%) showed an effect of 50% or more. The list comes from a sample in which strong results are over-represented; it also holds close analogues and randomly drawn compounds.
Below: a set of entries, each annotated with reported Percent Effect.
quantity measured: Percent Effect (%)

{"molecule": "Cc1nnc(CN(Cc2ccc3c(c2)OCO3)C2CCC(C)CC2)o1 (stereo unspecified)", "value observed": 50.97}
{"molecule": "Br.O=C(CN(C1=NCCCC1)c1ccccc1)c1ccccc1", "value observed": -16.62}
{"molecule": "Cc1nnc(C(C)N2CCCN(Cc3ccc(F)cc3)CC2)o1 (stereo unspecified)", "value observed": 8.155}
{"molecule": "Cc1nnc([C@@]23CCO[C@@H]2CCN(Cc2ccc4c(c2)OCO4)C3)o1", "value observed": -5.266}
{"molecule": "Br.O=C(CN(C1=NCCCC1)c1ccccc1)c1ccc2c(c1)OCCO2", "value observed": 22.49}
{"molecule": "Cc1noc(CN(Cc2ccc3c(c2)OCO3)C2CCCC2)n1", "value observed": 4.979}
{"molecule": "Br.CCOc1ccc(N(CC(=O)c2ccccc2)C2=NCCCCC2)cc1", "value observed": 104.2}
{"molecule": "Br.Cc1ccc(C(=O)CN(C2=NCCCCC2)c2ccccc2)cc1", "value observed": 29.09}
{"molecule": "Cc1nnc(CN(Cc2cccc(Br)c2)C2CC2)o1", "value observed": 22.14}
{"molecule": "CCc1noc(CN(Cc2ccc3c(c2)OCO3)C2CCCC2)n1", "value observed": 1.573}
{"molecule": "Cc1cnn(CC2CN(CCc3cccs3)CCO2)c1 (stereo unspecified)", "value observed": 13.16}

* * *

Test system: Mycobacterium tuberculosis
Assay: Cornell - Phenotypic assay to identify agents that inhibit growth of Mycobacterium tuberculosis
Format: functional
Set-up: scale not given: direction of the effect not stated beside the values
Conditions: 10 mM as filed; unlikely as a test dose
In all, about 53,000 compounds went through this assay and about 900 (1.7%) showed an effect of 50% or more. The sample holds strong results, similar compounds and a random draw of the others, so the mix is not that of the screen.
quantity measured: Percent Effect (%)

{"compound": "Cc1cccc(OCCN2CCC(c3ccnn3CCO)CC2)c1", "quantity measured": "Percent Effect", "value observed": -13.34}
{"compound": "CC(=O)Nc1nc(C(=O)NC(C)c2ccncc2)cs1 (configuration not stated)", "quantity measured": "Percent Effect", "value observed": -46.84}
{"compound": "COc1ccc(CN2CCC3(CC(C(=O)NCC(C)C)=NO3)C2)cc1 (configuration not stated)", "quantity measured": "Percent Effect", "value observed": 19.34}
{"compound": "O=C(CCn1c(=O)oc2ccccc21)NCC(O)c1ccccc1 (configuration not stated)", "quantity measured": "Percent Effect", "value observed": -6.039}
{"compound": "Cc1nn2cc(CNc3nccc(CCC(F)(F)F)n3)nc2s1", "quantity measured": "Percent Effect", "value observed": 14.28}
{"compound": "COc1ccc(NC(=O)c2nc(C)sc2C(C)C)cn1", "quantity measured": "Percent Effect", "value observed": 41.95}
{"compound": "CCNc1cc2c(nn1)CCN(C(=O)C1Cc3ccccc3S1)C2 (configuration not stated)", "quantity measured": "Percent Effect", "value observed": 12.56}
{"compound": "CCN(CCn1c(=O)oc2ccccc21)CC1CCOCC1", "quantity measured": "Percent Effect", "value observed": 48}
{"compound": "Cc1ncc2c(n1)CN(CC(=O)Nc1cccnc1)CC2", "quantity measured": "Percent Effect", "value observed": -17.74}
{"compound": "COc1ccccc1CCNS(=O)(=O)N1CCOCC1", "quantity measured": "Percent Effect", "value observed": -2.569}
{"compound": "Cc1[nH]/c(=N\\C(=O)c2csc(NCC(C)C)n2)sc1C", "quantity measured": "Percent Effect", "value observed": 105.2}
{"compound": "COc1ccc(-c2cn([C@H](CO)CC(C)C)nn2)cn1", "quantity measured": "Percent Effect", "value observed": 26.72}
{"compound": "Cc1ccc(CN2CCC3(CC2)C(=O)Nc2ccccc23)s1.O=C(O)C(F)(F)F", "quantity measured": "Percent Effect", "value observed": 18.05}
{"compound": "CC(NCCn1c(=O)oc2ccccc21)c1ccccn1 (configuration not stated)", "quantity measured": "Percent Effect", "value observed": 11.05}
{"compound": "COC1CCN(C(=O)CC(C)(C)C)CC(=O)N(C)c2ccccc21 (configuration not stated)", "quantity measured": "Percent Effect", "value observed": 2.903}
{"compound": "CCCC(=O)NCC(Cc1cccc(F)c1)N1CCCC1=O (configuration not stated)", "quantity measured": "Percent Effect", "value observed": 2.564}
{"compound": "CC(=O)Nc1nc(C(=O)NC(C)c2cccnc2)cs1 (configuration not stated)", "quantity measured": "Percent Effect", "value observed": -20.46}
{"compound": "CC(C)C(=O)NCCc1cc2nc(-c3ccncc3)ccn2n1", "quantity measured": "Percent Effect", "value observed": -48.83}
{"compound": "Cc1cccc(CN2C(=O)C[C@H]3[C@@H]2CCN3Cc2ccc(F)cc2)n1.O=C(O)C(F)(F)F.O=C(O)C(F)(F)F", "quantity measured": "Percent Effect", "value observed": 15.09}
{"compound": "O=C(Nc1ccnc(OC2CCOC2)c1)c1ccccc1Cl (configuration not stated)", "quantity measured": "Percent Effect", "value observed": 61.48}
{"compound": "O=C1COC2(CCN(Cc3ccco3)CC2)CN1Cc1cccnc1", "quantity measured": "Percent Effect", "value observed": 24.6}
{"compound": "Cc1ccc(C)n1-c1ccc(C(=O)NCCNc2ncccn2)cc1", "quantity measured": "Percent Effect", "value observed": 76.43}
{"compound": "O=C(O)C(F)(F)F.O=C1Nc2ccccc2C12CCN(Cc1cccs1)CC2", "quantity measured": "Percent Effect", "value observed": 50.44}
{"compound": "Cc1cc(C)c2[nH]c(=O)c(CN3CCCC(O)(CO)C3)cc2c1 (configuration not stated)", "quantity measured": "Percent Effect", "value observed": 23.96}
{"compound": "CCc1ccc(C(=O)NCCNc2ncccn2)cc1", "quantity measured": "Percent Effect", "value observed": -25.5}
{"compound": "Cc1cc(C)c2[nH]c(=O)c(CN3CCC(O)(CN(C)C)C3)cc2c1 (configuration not stated)", "quantity measured": "Percent Effect", "value observed": 15.85}
{"compound": "O=S(=O)(c1ccccc1Cl)N1CCC2(CC1)OCCS2", "quantity measured": "Percent Effect", "value observed": 36.27}
{"compound": "O=C(Cc1noc2ccccc12)N1CCCC1c1noc(C2CC2)n1 (configuration not stated)", "quantity measured": "Percent Effect", "value observed": 0.3643}
{"compound": "O=C(COc1coc(CN2CCOCC2)cc1=O)c1ccc(Cl)cc1", "quantity measured": "Percent Effect", "value observed": 4.659}
{"compound": "Clc1cc(CN2CCCN3CCCC3C2)c2ncccc2c1 (configuration not stated)", "quantity measured": "Percent Effect", "value observed": 58.38}
{"compound": "Cc1nc(NC(=O)c2c(-n3cnnn3)sc3c2CCCC3)sc1C", "quantity measured": "Percent Effect", "value observed": 19.43}
{"compound": "CCN(CC)CCn1c(=O)oc2ccccc21.Cl", "quantity measured": "Percent Effect", "value observed": 61.39}
{"compound": "COc1cccc(Cn2[nH]c(C)c3c(NC(=O)C(C)OC)nnc2-3)c1 (configuration not stated)", "quantity measured": "Percent Effect", "value observed": 19.31}
{"compound": "O=C(c1n[nH]c2ccccc12)N1CCCC1c1noc(C2CC2)n1 (configuration not stated)", "quantity measured": "Percent Effect", "value observed": 50.46}
{"compound": "O=S(=O)(c1ccccc1Br)N1CCC2(CC1)OCCS2", "quantity measured": "Percent Effect", "value observed": 54.27}
{"compound": "O=C(c1cccc2[nH]ncc12)N1CCCC1c1noc(C2CC2)n1 (configuration not stated)", "quantity measured": "Percent Effect", "value observed": 0.6634}
{"compound": "O=C(COc1coc(CN2CCCCCC2)cc1=O)c1ccccc1", "quantity measured": "Percent Effect", "value observed": -10.82}
{"compound": "CNC(=O)CS(=O)(=O)C1CCN(S(=O)(=O)c2ccccc2Br)CC1", "quantity measured": "Percent Effect", "value observed": 7.561}
{"compound": "Cc1nccc(-c2cccc(NCC(=O)N3CCOCC3)c2)n1", "quantity measured": "Percent Effect", "value observed": 9.914}
{"compound": "Cc1ccc(CN(CCN(C)C)Cc2c(C)nc3sccn23)o1.O=C(O)CC(O)(CC(=O)O)C(=O)O", "quantity measured": "Percent Effect", "value observed": 26.14}
{"compound": "Cc1nc(C(=O)Nc2cccnc2)c(C(C)C)s1", "quantity measured": "Percent Effect", "value observed": 51.63}
{"compound": "O=S(=O)(Cc1ccccc1Cl)N1CCC2(CC1)OCCS2", "quantity measured": "Percent Effect", "value observed": 47.83}
{"compound": "CC(C)CNc1nc(C(=O)/N=c2\\[nH]nc(C(C)(C)C)s2)cs1", "quantity measured": "Percent Effect", "value observed": 4.379}
{"compound": "Cc1c(Cl)cccc1S(=O)(=O)N1CCC2(CC1)OCCS2", "quantity measured": "Percent Effect", "value observed": 53.55}
{"compound": "CCn1cc2c(n1)C(COC)CN(Cc1ccoc1)C2 (configuration not stated)", "quantity measured": "Percent Effect", "value observed": -14.11}
{"compound": "O=C(Nc1ccnc(OC2CCOC2)c1)c1ccc(F)cc1Cl (configuration not stated)", "quantity measured": "Percent Effect", "value observed": 1.296}
{"compound": "CC(C)N1CCC2(CCN(C(=O)c3cccnc3)CC2)C1.O=C(O)C(F)(F)F.O=C(O)C(F)(F)F", "quantity measured": "Percent Effect", "value observed": -3.69}
